- assay-procedure: yeast display, Sf9 membrane polyspecificity reagent, FACS + sequencing; frameworks hold sequencing errors
result-type: polyreactivity (PSR sort gate)

Examples with answers:
QVQLVESGGGLVQAGGSLRLSCAASGRIFAYYVMGWYRQAPGKERELVAVISGSGSSTYYADSVKGRFTISRDNAKNTVYLQMNSLKPEDTAVYYCAASIQLYRSFITREYWGQGTQVSVSS: high polyreactivity
QVQLVESGGGLVQAGGSLRLSCAASGRTFTAYAMGWYRQAPGKERELVARITSVDSTNYADSVKGRFTISRDNAKNTVYLHMYSLKPDDTAVYYCNATFGYPFVDYDDYWGQVTQVTVSS: low polyreactivity
QVQLVESGGGLVQAGGSLRLTCAASGRIFPYMGWYRQAPGKERELVAAISSRGGNTYYADSVKGRFTISRDNAKNTVYLQMNSLKPEDTAVYYCNKVKYTWYDWGQGTQVTVSS: high polyreactivity
QVQLVESGGGLVQAGGSLRLSCAASGITFRTNTMGWYRQAPGKERELVAAISRGGTSTYYADSVKGRFTISRDNAKNTVYLQMNSLKPEDTAVYYCAADTRFYSGRGTVSGDYWGQGTQVTVSS: low polyreactivity
QVQLVESGGGLVQAGGSLRLSCAASGFTFGSNAMGWYRQAPGKERELVATISRRGGRTYYADSVKGRFTISRDNAKNTVYLQMNSLKPEDTAVYYCAAYLRPGGNYYWGQGTQVTVSS: high polyreactivity

Please state, for each entry, its recorded polyreactivity (PSR sort gate).
1. QVQLVESGGGLVQAGGSLRLSCAASGRTFYYYAMGWYRQAPGKERELVAVIRFSDGSTYYADSVKGRFTISRDNAKNTVYLQMNSLKPEDTAVYYCAAKGPRRWGSGFDYWGQGTQVTVSS
2. QVKLVESGAGLVQAGASLRLSCAASGLIFHQYAMGWYRQAPGKERELVAAITRSGTRTYYADSVKGRFTISRDNEKNTVYLQMNSLKPEDTAVYYCAAADTQGVSMDYWGQGTQVTVSS
3. QVQLVESGGGLVQAGGSLRLSCAASVRTFTPYAMGWYRQAPGKEREFVAAISIVGRKKYADSVKGRFTISRDNAKNTVYLQMNSLKPEDTEVYYCNAQDSRDRKFYWGYTRGHWGLGTQVTVSS
4. QVQLVESGGGLVQAGGSLRLSCAASGSTFGDNAMGWYRQAPGKEREFVAAITTSGTSTYYADSVKGRFTISRDNAKNTVYVQMNSLKPEDTAVYYCAAYSRAAAGFYSSRRDYYWGQGTQVTVSS
5. QVQLVESGGGLVQAGGSLRLSCAASGRTFGVYAMGWYRQAPGKERELVATIRTTGSTNYADSVKGRFTISRDNAKYTVYLQMNSVKTEDTAVYYCAARLRQSKYYPYTTFTYDYWGQGTQVTVSS

1: low polyreactivity; 2: high polyreactivity; 3: low polyreactivity; 4: low polyreactivity; 5: high polyreactivity

polyreactivity (PSR sort gate) for "QVQLVESGGGLVQAGGSLRLSCASSGFTFSDYAMAWYRQAPGKERELVADISTSGGSTYYADSVKGRFTISRDNAKNTVYLQMNSLKPEDTAVYYCAVRPGYYWGYWPRFGYWGQGTQVTVSS" ?
low polyreactivity

// data source = the nanobody polyreactivity screen of Harvey et al. (2022)
